Reported Germination (%) values are given for each entry in this list.
Test system: Orobanche cumana Wallr. seeds
procedure.summary: Germination of preconditioned Orobanche cumana seeds on glass fiber filter paper in petri dishes
Format: in vivo
condition.notes: Table B3; concentration 0.1 mg 1^−1; mean, N = 5 × 100 seeds; seed lot IN153; DMSO control 0% germination
Hi! Could you send only the number? It should be in %, unit omitted.

{"columns": ["molecule", "Germination (%)"],
 "data": [
  ["CC1=CC(O/C=C2\\CCC(c3ccccc3)N(C(=O)OC(C)(C)C)C2=O)OC1=O (stereo not shown)", 90.2],
  ["CC1=CC(O/C=C2\\CCC(c3ccccc3)NC2=O)OC1=O (stereo not shown)", 92.4],
  ["CC1=CC(O/C=C2\\CC(c3ccccc3)N(C(=O)OC(C)(C)C)C2=O)OC1=O (stereo not shown)", 71.8]
]}

# ---- query molecule ----
Q. Endpoint output: Germination (%) of CC1=C[C@H](O/C=C2/C(=O)O[C@@H]3c4ccccc4C[C@H]23)OC1=O (mixture of isomers) [GR-24, reference compound] . Value?
A. 84.2
